- System: CD2F1 mice, L1210 leukemia ip, survival T/C
- test: NCI In Vivo Anticancer Drug Screen. Data for tumor model L1210 Leukemia (intraperitoneal) in CD2F1 (CDF1) mice
- recorded_conditions: endpoint: mean survival time; dose: 200.0 mg/kg/injection; schedule: Q04DX003 (ip); vehicle: saline with Tween-80; higher = longer survival
- Description: The antitumor activity of compounds was measured in mice bearing transplantable tumors. Survival or tumor size were measured and the results are expressed as the measurement made in the treated group (T) divided by the measurement made in the vehicle treated control group (C). The tumor model used in this assay is L1210 Leukemia (intraperitoneal) in CD2F1 (CDF1) mice
Inconclusive results and toxic doses are left out.
recorded_metric: T/C

Use the examples below as a reference point.
| molecule | assay_system | recorded_metric | reported_result |
| --- | --- | --- | --- |
| COC(=O)C(c1ccccc1)C(SCc1ccccc1)c1ccccc1 (stereo not given) | CD2F1 mice, L1210 leukemia ip, survival T/C | T/C | 95 % of control |
| CC(=O)C(C(C)=O)C(c1ccccn1)C(C(C)=O)C(C)=O | CD2F1 mice, L1210 leukemia ip, survival T/C | T/C | 98 % of control |
| O=C(O)CSCC(=O)c1ccccc1 | CD2F1 mice, L1210 leukemia ip, survival T/C | T/C | 98 % of control |
| O=C(Nc1ccccc1)c1ccccc1C(O)(c1ccccc1)c1ccccn1 (stereo not given) | CD2F1 mice, L1210 leukemia ip, survival T/C | T/C | 101 % of control |

Task item: // query T/C value for entry O=C(O)CC1(O)CCCCC1c1ccccc1 (stereo not given)
Reply: 105 % of control

Task item: Field request: T/C | item: CC(=O)OC1(C)C=C/C(=N\S(=O)(=O)c2ccc(C)cc2)c2ccccc21 (stereo not given)
Reply: 97 % of control

Task item: Requested field: T/C. Item: O=C1c2ccccc2C2c3[nH]c4ccccc4c3CCN12 (stereo not given)
Reply: 95 % of control

Task item: # get_value(readout='T/C', item= "Cc1nc2c(N)nn(C)c2nc1C" )
Reply: 101 % of control

Task item: # query: T/C of entry COC(=O)/C1=C/CCCCCC(=O)C1C(=O)OC (stereo not given)
Reply: 100 % of control

====

- System: CD2F1 mice, L1210 leukemia ip, survival T/C
- test: NCI In Vivo Anticancer Drug Screen. Data for tumor model L1210 Leukemia (intraperitoneal) in CD2F1 (CDF1) mice
- recorded_conditions: endpoint: mean survival time; dose: 200.0 mg/kg/injection; schedule: Q01DX009 (ip); vehicle: saline with Tween-80; higher = longer survival
Toxic doses and inconclusive results are not listed.
recorded_metric: T/C

Before answering, review these 3 worked examples.
| compound | assay_system | T/C |
| --- | --- | --- |
| COc1cc(OC)c(NC(=O)Oc2cc(C)c(Cl)c(C)c2Cl)cc1Cl | CD2F1 mice, L1210 leukemia ip, survival T/C | 97 % of control |
| CCCCCc1ccc(C(C)=O)cc1 | CD2F1 mice, L1210 leukemia ip, survival T/C | 103 % of control |
| c1ccc2c3c(ccc2c1)CN1CCCCC1C3 (stereo not given) | CD2F1 mice, L1210 leukemia ip, survival T/C | 104 % of control |

Task item: What does the data say about its T/C? Entry: CC(C)(C)NC(=O)CCC(CC(=O)NC(C)(C)C)OCc1ccccc1 (stereo not given)
Reply: 102 % of control

Task item: // query T/C value for entry CCCCN1CCCC(O)C1 (stereo not given)
Reply: 103 % of control

Task item: Can you share its T/C? I mean this compound: "Oc1ccc(SCc2ccc(NCc3ccccc3)cc2)cc1"
Reply: 101 % of control

Task item: Any idea what its T/C is? The compound is "C/C=C/C(OC(C)=O)OC(C)=O"
Reply: 103 % of control

Task item: I'd like to know its T/C. The compound in question is "O=C(N/N=C\c1ccc(F)cc1)N/N=C/c1ccc(F)cc1"
Reply: 90 % of control

Task item: # input compound: "O=C(O)O" ; wanted: its T/C
Reply: 107 % of control

Task item: Request the reported T/C associated with O=S(=O)(Cl)OC(CCl)C(OS(=O)(=O)Cl)C(OS(=O)(=O)Cl)C(CCl)OS(=O)(=O)Cl (stereo not given)
Reply: 100 % of control

Task item: Data request, read-out T/C, for CC(C)c1cc(C(C)C)c(S(=O)(=O)OCC2OC(OC3(COS(=O)(=O)c4c(C(C)C)cc(C(C)C)cc4C(C)C)OC(COS(=O)(=O)c4c(C(C)C)cc(C(C)C)cc4C(C)C)C(O)C3O)C(O)C(O)C2O)c(C(C)C)c1 (stereo not given)
Reply: 102 % of control

Task item: What value of T/C has been recorded for this entry: "O=C(O)CCn1c(=O)[nH]c(=O)n(CCC(=O)O)c1=O"
Reply: 100 % of control

Task item: Name the reported T/C value associated with the compound "O=S1(=O)Oc2cccc3cccc1c23"
Reply: 98 % of control

Task item: Returns the measured T/C for the input compound. Input: "O=c1cccc(Cl)[nH]1"
Reply: 102 % of control

Task item: Bench note: what T/C did "[N-]=[N+]=CC(=O)NCC(=O)NNC(=O)c1ccccc1" show?
Reply: 107 % of control

Task item: Given "O=C(O)CCCCCCC(=O)c1ccccc1" , state its recorded T/C.
Reply: 97 % of control

Task item: Entry COC1OC(CN=[N+]=[N-])C(N=[N+]=[N-])C(OS(C)(=O)=O)C1OS(C)(=O)=O (stereo not given) : reported T/C = ?
Reply: 95 % of control

Task item: Requested field: T/C. Item: O=COC1CC2CC1C1CCCC21 (stereo not given)
Reply: 97 % of control

Task item: // T/C lookup, key: "Cc1cccc(/C=N\OCc2ccccc2)n1"
Reply: 113 % of control

Task item: Give the measured T/C of "Cc1cccc(SC(=O)Nc2ccc(Cl)cc2C)c1" .
Reply: 95 % of control

Task item: Which T/C is listed for "Cc1ccc(NC(=O)OCCOc2ccc(-c3ccccc3)cc2)cc1[N+](=O)[O-]" ?
Reply: 94 % of control

Task item: Give the measured T/C of "O=C(O)c1cccc2c1-c1c(cccc1[N+](=O)[O-])C2" .
Reply: 91 % of control

Task item: Can you share its T/C? I mean this compound: OC(CCCCl)CC(O)(C(F)(F)F)C(F)(F)F (stereo not given)
Reply: 94 % of control
